Taken from patent US10538532B2.

# CC50 at 3 days per entry
Assay explanation: Compound toxicity, ATPLite total ATP levels
Assay type: cell-based
Study conditions: human, HepAD38 cells; three days after compound addition; concentration reducing total ATP levels by 50% relative to no drug controls; class symbols

Some compounds with known CC50 at 3 days results, for comparison:
- Compound: "O=C(Nc1cc(F)c(F)c(F)c1)c1ccc(Cl)c(S(=O)(=O)[C@H]2CC3CCC(C2)[C@]3(O)Cc2nnn[nH]2)c1"
  Test readout: "CC50 at 3 days"
  Value observed: "> 25 µM"
- Compound: "N#CC[C@]1(O)C2CCC1C[C@@H](S(=O)(=O)c1cc(C(=O)Nc3cc(F)c(F)c(F)c3)ccc1Cl)C2"
  Test readout: "CC50 at 3 days"
  Value observed: "> 25 µM"
- Compound: "NC[C@@]1(O)CC2CC[C@@H](C1)[C@H]2S(=O)(=O)c1cc(C(=O)Nc2cc(F)c(F)c(F)c2)ccc1Cl"
  Test readout: "CC50 at 3 days"
  Value observed: "< 10 µM"
- Compound: "O=C(Nc1cc(F)c(F)c(F)c1)c1ccc(Cl)c(S(=O)(=O)CCCO)c1"
  Test readout: "CC50 at 3 days"
  Value observed: "> 25 µM"
- Compound: "O=C(Nc1cc(F)c(F)c(F)c1)c1ccc(Cl)c(S(=O)(=O)Cc2ccccn2)c1"
  Test readout: "CC50 at 3 days"
  Value observed: "> 25 µM"
- Compound: "CS(=O)(=O)NC[C@]1(O)CC2CC[C@@H](C1)[C@H]2S(=O)(=O)c1cc(C(=O)Nc2cc(F)c(F)c(F)c2)ccc1Cl"
  Test readout: "CC50 at 3 days"
  Value observed: "> 25 µM"

Ask: Entry COC(=O)NC1CC2CC[C@@H](C1)[C@H]2S(=O)(=O)c1cc(C(=O)Nc2cc(F)c(F)c(F)c2)ccc1Cl (some centres unmarked) : reported CC50 at 3 days = ?
Reply: > 25 µM

Ask: Same read-out for O=C(Nc1cc(F)c(F)c(F)c1)c1ccc(Cl)c(S(=O)(=O)[C@H]2C3CC[C@H]2C[C@@](O)(CNS(=O)(=O)C2CC2)C3)c1 ?
Reply: > 25 µM

Ask: Could you do the same for C[C@]1(O)C2CCC1C[C@@H](S(=O)(=O)c1cc(C(=O)Nc3cc(F)c(F)c(F)c3)ccc1Cl)C2 , please?
Reply: 10 to 25 µM

Ask: Further, for O=C(Nc1cc(F)c(F)c(F)c1)c1ccc(Cl)c(S(=O)(=O)[C@]2(F)CC[C@@H](O)CC2)c1 ?
Reply: 10 to 25 µM

Ask: Next entry: O=C(Nc1cc(F)c(F)c(F)c1)c1ccc(Cl)c(S(=O)(=O)[C@H]2CC3CCC(C2)[C@]3(O)c2ccccn2)c1
Reply: > 25 µM

Ask: Also check CS(=O)(=O)NC1CC2CC[C@@H](C1)[C@H]2S(=O)(=O)c1cc(C(=O)Nc2cc(F)c(F)c(F)c2)ccc1Cl (some centres unmarked)
Reply: > 25 µM

Ask: Thanks! And O=C(Nc1cc(F)c(F)c(F)c1)c1ccc(Cl)c(S(=O)(=O)[C@H]2CC3CCC(C2)[C@H]3c2ncc[nH]2)c1 ?
Reply: < 10 µM

Ask: Can you check O=C(Nc1cc(F)c(F)c(F)c1)c1ccc(Cl)c(S(=O)(=O)Cc2ccncc2)c1 next?
Reply: > 25 µM

----------
Assay explanation: Compound toxicity, ATPLite total ATP levels
Format: cell-based
Study conditions: human, HepAD38 cells; three days after compound addition; concentration reducing total ATP levels by 50% relative to no drug controls; numeric bounds
Test readout: CC50 at 3 days

- Compound: "N#C[C@H]1CC2CC[C@@H](C1)[C@H]2S(=O)(=O)c1cc(C(=O)Nc2cc(F)c(F)c(F)c2)ccc1Cl [Example 284]"
  CC50 at 3 days: "> 3.12 µM"

Ask: Can you look up the measured CC50 at 3 days of CC1=NO[C@@]2(C1)CC1CC[C@@H](C2)[C@H]1S(=O)(=O)c1cc(C(=O)Nc2cc(F)c(F)c(F)c2)ccc1Cl [Example 188] for me?
Reply: > 12.5 µM

Ask: Repeat for the following compound: O=C(Nc1cc(F)c(F)c(F)c1)c1ccc(Cl)c(S(=O)(=O)[C@H]2CC3CCC(C2)[C@]3(O)CNS(=O)(=O)C2CC2)c1 [Example 294]
Reply: > 6.25 µM

----------
Assay explanation: Compound toxicity, ATPLite total ATP levels
Format: cell-based
Study conditions: human, HepAD38 cells; three days after compound addition; concentration reducing total ATP levels by 50% relative to no drug controls; numeric bounds
Test readout: CC50 at 3 days

Below, 4 compounds whose answers are already recorded.
- Compound: "CS(=O)(=O)NC[C@]1(O)C2CCC1C[C@@H](S(=O)(=O)c1cc(C(=O)Nc3cc(F)c(F)c(F)c3)ccc1Cl)C2 [Example 259]"
  CC50 at 3 days: "> 12.5 µM"
- Compound: "CS(=O)(=O)NC[C@]1(O)C2CCC1C[C@H](S(=O)(=O)c1cc(C(=O)Nc3cc(F)c(F)c(F)c3)ccc1Cl)C2 [Example 273]"
  CC50 at 3 days: "> 12.5 µM"
- Compound: "O=C(Nc1cc(F)c(F)c(F)c1)c1ccc(Cl)c(S(=O)(=O)[C@H]2CC3CCC(C2)[C@]3(O)CO)c1 [Example 324]"
  CC50 at 3 days: "> 12.5 µM"
- Compound: "CC[C@]1(O)C2CCC1C[C@@H](S(=O)(=O)c1cc(C(=O)Nc3cc(F)c(F)c(F)c3)ccc1Cl)C2 [Example 252]"
  CC50 at 3 days: "> 6.25 µM"

--- query ---
Ask: Request the reported CC50 at 3 days associated with O=C(Nc1cc(F)c(F)c(F)c1)c1ccc(Cl)c(S(=O)(=O)[C@H]2C3CC[C@H]2C[C@](O)(Cn2cccn2)C3)c1 [Example 313]
Reply: > 6.25 µM
